# ASSAYED TARGET: T1, INTU, Q9ULD6
# T1 sequence (Q9ULD6 180-273, limits assumed, looked up): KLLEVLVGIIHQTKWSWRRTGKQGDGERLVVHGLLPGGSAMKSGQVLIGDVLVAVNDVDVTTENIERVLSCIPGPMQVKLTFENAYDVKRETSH
# MEASUREMENT NOTES: holdup assay
# Design: key: below the threshold = too weak to quantify, mostly under pKd 3.1 to 4
# CONDITIONS: plain residues with an end cap or a label only (N-terminal biotin on a linker: ttds)
READOUT NAME: pKd

// worked examples, pKd included
[[record]]
binder = "KLVIKTETTV [RASSF6, Q6ZTQ3]"
endpoint_value = "below the threshold"

[[record]]
binder = "SRSRRRETAL [HPV33-E6, P06427]"
endpoint_value = 4.54

[[record]]
binder = "SGGKRKETLV [NET1, Q7Z628]"
endpoint_value = "below the threshold"

[[record]]
binder = "SSIDLWETAL [SLC15A5, A6NIM6]"
endpoint_value = "below the threshold"

[[record]]
binder = "SHSSKGETAV [FZD7, O75084]"
endpoint_value = "below the threshold"


Answer with reported pKd of PSRDRKETSI [RALBP1, Q15311]
below the threshold

Reference source for all entries: paper PMC9482650
